- Test system: Saccharomyces cerevisiae
- method.notes: protein stability index of tFT-peptide fusion (C-terminal peptide) (PSI (0-1 scale)); higher = more stable (slower turnover)
- stated.conditions: genetic background: doa10 deletion; temperature: 30 C
metric: protein stability index
// return a plain number; no unit text

Please review the entries below; each comes with its answer.
• VCVVVLVGVVFL = 0.198
• RSCKSIRGIFVC = 0.2
• FERKVHSRWLFF = 0.0981

Short answer please: protein stability index, Saccharomyces cerevisiae, entry `DWTVSYLWVTAL`
0.185

// lookup protein stability index | system=Saccharomyces cerevisiae | key= `VYCLVLFFSQWC`;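 also: PSI is a weighted mean of sequencing reads over stability bins, variants kept only with over 10 reads, mCherry proximal and sfGFP distal, peptide attached via GGGS linker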
0.353

Give Saccharomyces cerevisiae protein stability index for `FLTLQSPIQYIV`
0.105

What protein stability index appears in the records for this sequence with Saccharomyces cerevisiae? `WLMVGVDWRFVG`
0.0725

FYI, the data here is from the supplement of paper PMC10724198.
